- System: Escherichia coli TOP10
- Assay text: shrunken log2 fold change of peptide-encoding DNA abundance (4.5 h post-induction vs induction); higher = less antimicrobial activity (less host growth inhibition)
- Experimental setup: time post-induction: 4.5 h; library: site-saturation at positions 5, 18, 19, 20
Give Fulfilled when the value for shrunken log2 fold change is at least -0.2. Give Not fulfilled when it is less.

• RRIRMRPPRLPRPRPRPGKWPRP = Fulfilled
• RRIRVRPPRLPRPRPRPMPAPRP = Fulfilled
• RRIRVRPPRLPRPRPRPMNCPRP = Fulfilled
• RRIRWRPPRLPRPRPRPMERPRP = Fulfilled
• RRIRLRPPRLPRPRPRPCFVPRP = Not fulfilled
• RRIRARPPRLPRPRPRPQKMPRP = Fulfilled
• RRIRTRPPRLPRPRPRPMIDPRP = Not fulfilled

Asked: Evaluate RRIRVRPPRLPRPRPRPVQQPRP : shrunken log2 fold change at minimum -0.2?
Given back: Not fulfilled

* * *

Parameter shrunken log2 fold change: see the listing below.
- Tested on: Escherichia coli TOP10
- Assay text: shrunken log2 fold change of peptide-encoding DNA abundance (4.5 h post-induction vs induction); higher = less antimicrobial activity (less host growth inhibition)
- Experimental setup: time post-induction: 4.5 h; library: site-saturation at positions 5, 18, 19, 20
Please reply with the number alone, leaving off any unit.

These recorded examples may help you get a feel for the data.
• RRIRRRPPRLPRPRPRPYIFPRP = -0.639
• RRIRIRPPRLPRPRPRPNMFPRP = -0.394
• RRIRMRPPRLPRPRPRPEMPPRP = 0.791
• RRIRTRPPRLPRPRPRPCFHPRP = -0.638
• RRIRERPPRLPRPRPRPLCYPRP = -0.824

Asked: Entry under review: RRIRSRPPRLPRPRPRPKGLPRP . Reported shrunken log2 fold change?
Given back: -0.0223

Asked: Looking for the measured shrunken log2 fold change of RRIRIRPPRLPRPRPRPEKGPRP , can you help?
Given back: -0.257

Asked: Requested field: shrunken log2 fold change. Item: RRIRTRPPRLPRPRPRPQEYPRP
Given back: -0.0331

* * *

- System: Escherichia coli TOP10;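 further: peptides expressed intracellularly from a pBAD plasmid library in pooled LB shake-flask culture, induced with 0.3% L-arabinose, DNA abundance read by NGS, three biological replicates, DESeq2 with apeglm shrinkage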
- Assay text: shrunken log2 fold change of peptide-encoding DNA abundance (4.5 h post-induction vs induction); higher = less antimicrobial activity (less host growth inhibition)
- Experimental setup: time post-induction: 4.5 h; library: site-saturation at positions 5, 18, 19, 20
Reported endpoint: shrunken log2 fold change
API note: the answer field is a bare number with no unit suffix.

Take a look at these entries with their results.
- RRIRKRPPRLPRPRPRPQIAPRP: -0.11
- RRIRWRPPRLPRPRPRPKDMPRP: -0.0331

Asked: Sample RRIRFRPPRLPRPRPRPLSIPRP — what was its shrunken log2 fold change?
Given back: -0.203

Asked: Name the recorded shrunken log2 fold change for RRIRHRPPRLPRPRPRPKDLPRP .
Given back: -0.0584

Asked: What does the record list as shrunken log2 fold change for RRIRTRPPRLPRPRPRPLGIPRP ?
Given back: -0.638

Asked: // shrunken log2 fold change lookup, key: RRIRVRPPRLPRPRPRPEEPPRP
Given back: 0.0911

Asked: What value of measured shrunken log2 fold change is listed for RRIRPRPPRLPRPRPRPRCYPRP ?
Given back: 0.0458

Asked: # get_value(readout='shrunken log2 fold change', item= RRIRCRPPRLPRPRPRPHCRPRP )
Given back: -0.0478

Asked: Entry under review: RRIRDRPPRLPRPRPRPYHSPRP . Reported shrunken log2 fold change?
Given back: -0.198

Asked: So what does the record say about shrunken log2 fold change for RRIRPRPPRLPRPRPRPTVIPRP ?
Given back: -0.28

Asked: Name the reported shrunken log2 fold change value associated with the sequence RRIRNRPPRLPRPRPRPPVHPRP
Given back: -0.148

Asked: // returns reported shrunken log2 fold change for input RRIRCRPPRLPRPRPRPKFFPRP
Given back: 0.0952

Asked: GET /values?readout=shrunken log2 fold change&item= RRIRVRPPRLPRPRPRPAMFPRP
Given back: -0.0685

Asked: shrunken log2 fold change for RRIRFRPPRLPRPRPRPNDLPRP ?
Given back: 0.00528

Asked: Would you kindly share the measured shrunken log2 fold change for RRIRNRPPRLPRPRPRPFNTPRP ?
Given back: -0.765
